Target: JAK3 (Homo sapiens, UniProt P52333)
Construct: purchased Carna Biosciences, Inc
Sequence (P52333 1-1124): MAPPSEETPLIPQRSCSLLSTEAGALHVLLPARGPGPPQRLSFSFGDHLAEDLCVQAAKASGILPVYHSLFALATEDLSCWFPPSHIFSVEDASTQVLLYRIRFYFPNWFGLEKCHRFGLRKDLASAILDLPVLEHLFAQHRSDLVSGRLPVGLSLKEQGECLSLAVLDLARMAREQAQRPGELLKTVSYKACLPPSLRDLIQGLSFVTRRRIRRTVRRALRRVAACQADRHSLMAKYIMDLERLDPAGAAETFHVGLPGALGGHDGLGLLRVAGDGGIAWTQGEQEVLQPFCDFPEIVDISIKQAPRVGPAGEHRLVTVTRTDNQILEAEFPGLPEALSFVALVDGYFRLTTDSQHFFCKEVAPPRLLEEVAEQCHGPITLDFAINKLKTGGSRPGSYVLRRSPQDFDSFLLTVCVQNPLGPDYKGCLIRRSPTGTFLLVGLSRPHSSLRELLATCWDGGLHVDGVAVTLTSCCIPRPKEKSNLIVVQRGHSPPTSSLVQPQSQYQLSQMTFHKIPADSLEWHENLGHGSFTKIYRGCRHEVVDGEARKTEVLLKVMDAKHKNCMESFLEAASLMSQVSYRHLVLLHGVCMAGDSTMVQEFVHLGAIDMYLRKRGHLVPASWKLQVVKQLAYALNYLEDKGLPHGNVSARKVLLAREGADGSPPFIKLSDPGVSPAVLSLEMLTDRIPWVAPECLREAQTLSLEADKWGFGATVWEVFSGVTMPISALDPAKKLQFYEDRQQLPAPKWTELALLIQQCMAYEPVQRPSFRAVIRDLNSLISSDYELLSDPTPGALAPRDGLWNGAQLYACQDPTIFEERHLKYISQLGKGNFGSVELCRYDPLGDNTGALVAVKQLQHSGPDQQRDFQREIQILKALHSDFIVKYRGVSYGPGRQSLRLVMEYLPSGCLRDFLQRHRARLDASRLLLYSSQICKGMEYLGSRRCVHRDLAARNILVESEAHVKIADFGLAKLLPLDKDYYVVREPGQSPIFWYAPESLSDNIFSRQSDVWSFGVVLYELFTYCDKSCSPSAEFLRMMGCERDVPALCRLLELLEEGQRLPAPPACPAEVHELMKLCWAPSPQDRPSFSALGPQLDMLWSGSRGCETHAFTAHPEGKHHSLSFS
Assay: JAK tyrosine kinase inhibitory activity in the presence of 1 mM ATP (ELISA), JAK3
Assay type: biochemical
Where a name gives a salt, the structure may show the parent alone.
Rule for this label: label 1 means IC50 is less than 3000 nM; label 0 means IC50 is at least 3000 nM.

Known results for compounds:
| COMPOUND | CAT |
| --- | --- |
| COC(=O)NC1CCN(C(=O)c2cc(NCC3CCN(C(=O)OC)CC3)nc(-c3cnn4ccsc34)n2)CC1 | label 0 |
| COC(=O)NC1CCN(C(=O)c2cc(NC3CCN(S(C)(=O)=O)CC3)nc(-c3cnn4ccsc34)n2)CC1 | label 0 |
| C[C@@H](Nc1cc(C(=O)N2CCC(NC(=O)c3ccccc3Cl)CC2)nc(-c2cnn3ccsc23)n1)C(C)(C)C | label 0 |
| COC(=O)NC1CCN(C(=O)c2cc(OC(C)C(C)(C)C)nc(-c3cnn4ccsc34)n2)CC1 (centres unmarked) | label 0 |
| COC(=O)NC1CCN(C(=O)c2cc(OCC3CN(C(=O)OC(C)(C)C)C3)nc(-c3cnn4ccsc34)n2)CC1 | label 0 |
| C[C@H](Nc1cc(C(=O)N2CCC(NC(=O)C3CCC3)CC2)nc(-c2cnn3ccsc23)n1)C1CC1 | label 1 |
| C[C@@H](Nc1cc(C(=O)N2CCC(NC(=O)OCC(F)F)CC2)nc(-c2cnn3ccsc23)n1)C(C)(C)C [Example 97, hydrochloride] | label 1 |
| C[C@H](Nc1cc(C(=O)N2CCC(NC(=O)c3ccccn3)CC2)nc(-c2cnn3ccsc23)n1)C1CC1 | label 1 |

q: Please let me know if Cc1c(N[C@@H](C)C(C)(C)C)nc(-c2cnn3ccsc23)nc1C(=O)N1CCC(NC(=O)C2CC2)CC1 shows IC50 below 3000 nM.
a: label 1

q: Determine whether this compound shows IC50 lower than 3000 nM (ties excluded): COCCOC(=O)NC1CCN(C(=O)c2cc(N[C@H](C)C3CC3)nc(-c3cnn4ccsc34)n2)CC1
a: label 0

q: Given the entry CCC(CC)N(C)c1cc(C(=O)N2CCC(O)CC2)nc(-c2cnn3ccsc23)n1 [Example 120, hydrochloride] , would its reported IC50 be below 3000 nM?
a: label 0

q: Does CCOC(=O)NC1CCN(C(=O)c2cc(N[C@@H](C)C3CC3)nc(-c3cnn4ccsc34)n2)CC1 have IC50 strictly under 3000 nM?
a: label 0

q: Take the compound COC(=O)NC1CCN(C(=O)c2cc(N[C@@H]3CCN(C)C3)nc(-c3cnn4ccsc34)n2)CC1 and say whether its IC50 is less than 3000 nM.
a: label 0

q: Lab log: compare recorded IC50 with 3000 nM; is it strictly lower for COC(=O)NC1CCN(C(=O)c2cc(NC(C)(C)CO)nc(-c3cnn4ccsc34)n2)CC1 ?
a: label 0

q: Please indicate whether the reported IC50 of CC(C)C(=O)NC1CCN(C(=O)c2cc(NC(C)(C)C)nc(-c3cnn4ccsc34)n2)CC1 is strictly below 3000 nM.
a: label 0

q: Identify whether the compound N#CCC(=O)N1CC[C@@H](Nc2cc(C(=O)N3CCC(NC(=O)C4CC4)CC3)nc(-c3cnn4ccsc34)n2)C1 records IC50 below 3000 nM.
a: label 0

q: Strictly below 3000 nM in IC50? COc1ccccc1C(=O)NC1CCN(C(=O)c2cc(N[C@@H](C)C3CC3)nc(-c3cnn4ccsc34)n2)CC1
a: label 1
